Can you tell me Length of entire tube of HUVEC (2 × 10^4 cells) (pixels) for the items I'm about to list?
system: HUVEC; test: Cell-based functional assay, endothelial cell tube formation (BD BioCoat Angiogenesis System); design: species or system human; conditions: 5 μM fused protein synergibody, 18 hours; unrelated control group 12,227 ± 1,232

Look up Length of entire tube of HUVEC (2 × 10^4 cells) (pixels) for this molecule: Syn-Ang-VEGFR-14: fused protein synergibody SAITAng-2-3 × DTN10VEGFR-2-4, peptide at C-terminal of heavy chain (protein, left off: a dimerising Fc or GST, fused protein synergibody SAITAng-2-3 × DTN10VEGFR-2-4, peptide at C-terminal of heavy chain) heavy (part 1 of 2): DVQLVESGGGLVQPGGSRKLSCAASGFTFSSFGMHWVRQAPEKGLEWVAYISSDSSTIYYADTVKGRFTISRDNPKNTLFLQMTSLRSEDTAMYYCAREGGYDDYYAMDYWGQGTSVTVSS heavy (part 2 of 2): TGSGRMCDGSGPPTNCWFT light: DIQMTQSPASQSASLGESVTITCLASQTIGTWLAWYQQKPGKSPQLLIYAATSLADGVPSRFSGSGSGTKFSFKISSLQAEDFVSYYCQQLYSIPLTFGGGTKLEIK
4,183 ± 698 pixels

I have this molecule here, Syn-Ang-VEGFR-7: fused protein synergibody SAITAng-2-2 × DTN8VEGFR-2-2, peptide at C-terminal of heavy chain (protein, left off: a dimerising Fc or GST, fused protein synergibody SAITAng-2-2 × DTN8VEGFR-2-2, peptide at C-terminal of heavy chain) heavy (part 1 of 2): QVQLQQSGPELVKPGASVKMSCKASGYTFTDYVISWVKQRTGQGLEWIGEIYPGSGSTYYNEKFKGKASLTADKSSNTAYMQLSSLTSADSAVYFCVRSRGDYYAMDYWGQGTSVTVSS heavy (part 2 of 2): EAGKETCGYEWQYCPRP light: DIQMTQSPSSLSASLGGKVTITCKASQDINNYITWYQHKPGKGPRLLIHYTSTLQPGIPSRFSGSGSGRDYSFSISNLEPEDIATYYCLQYDNLLTFGGGTKLEIK , and I need its recorded Length of entire tube of HUVEC (2 × 10^4 cells) (pixels).
5,935 ± 995 pixels
